- test target: SARS-CoV-2 S-protein-ACE2 binding (Homo sapiens, UniProt Q9BYF1, K631R)
- Construct: made in house
- protocol: EIS-based biosensing platform (ACE2-Pd-NTFE): modulation of S-protein-ACE2 binding
- Design: species or system SARS-CoV-2; human
- test settings: 4 μg/mL ACEi, at maximum S-protein concentration
Items are presented alongside their recorded suppression of S-protein-ACE2 interaction / maximum binding efficacy.
recorded metric: suppression of S-protein-ACE2 interaction / maximum binding efficacy

molecule=CCC[C@H](N[C@@H](C)C(=O)N1[C@H](C(=O)O)C[C@@H]2CCCC[C@@H]21)C(=O)O test_target="SARS-CoV-2 S-protein-ACE2 binding (Homo sapiens, UniProt Q9BYF1, K631R)" meas_value=67%
molecule=C[C@H](N[C@@H](CCc1ccccc1)C(=O)O)C(=O)N1[C@H](C(=O)O)C[C@@H]2CCC[C@@H]21 test_target="SARS-CoV-2 S-protein-ACE2 binding (Homo sapiens, UniProt Q9BYF1, K631R)" meas_value=72%
